Assayed Target: T1, purified recombinant 161P2F10B extracellular domain (Tag5-161P2F10B ECD, amino acids 46-875) (human, UniProt O14638 46-875)
T1 construct: also called full length ECD
Experiment Summary: SPR (BIAcore), MAb captured on chip, recombinant 161P2F10B injected, 1:1 fit;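 also: purified human MAbs immobilised by capture on a CM5 chip surface, about 150 RU of antibody per cycle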
Parameter Measured: kon (M⁻¹ s⁻¹)
Numbers only here, please. The scale is M⁻¹ s⁻¹.

kon recorded for this binder, H16-9.44 (antibody, V domains shown, also called Ha16-9.44) VH: LSLTCTVSGGSISSYYWSWIRQSAGKGLEWIGRIYTGVSTNYNPSLKSRVTMSVDTSKNQFSLKLSSVTAADTAVYYCARDYYDSSGYYPFDYWGQGTLVTVSS VL: DIQMTQSPSSLSASVGDRVTISCRASQGISNYLAWFQQKPGKAPKSLIYAASSLENGVPSKFSGSGSGTDFTLTISSLQPEDFATYYCQQYNSSPFTFGPGTKVDIRR , is 174000

kon recorded for this binder, H16-1(3,5)5 (antibody, V domains shown, Entries hold the leader (or part of it) and a portion of the constant region; also called Ha16-1(3,5)5) VH: EVQLVQSGAEVKKPGESLKISCKGSGYRFTSYWIGWVRQMPGKGLEWMGIIYPGDSDTRYSPSFQGQVTISADKSISTAYLQWSSLKASDTAMYYCARKDYYYYTMDVWGQGTTVTVSS VL: QSALTQPASVSGSPGQSITISCTGTSSDVGGYNYVSWYQQHPGKAPKLMIYAVSNRPSGVSNRFSGSKSGNTASLTISGLQAEDEADYYCSSYTISRILVVFGGGTKLTVLG , is 6600

kon recorded for this binder, Ha16-1(1)11 (antibody, V domains shown, also called ATCC PTA-7450) VH: GPGLVKPSETLSLTCTVSGGSISSYYWSWIRQPPGKGLEWIGYIYYSGSTNYNPSLKSRVTISVDTSKNQFSLKLSSVTAADTAVYYCARAVSYYYYGMDVWGQGTTVTVSS VL: DIQMTQSPSSLSASVGDRVTITCRTIQNINSYLNWYQQRPGKAPKLLIYATSSLQSGVPSRFSGSGSGTDFTLTISSLQPEDFATYYCQQTYSTLFTFGPGTKVDIKR , is 65800
